These measurements were taken from PubChem BioAssay (EPA / NIEHS).

Read-out: Monocyte Chemoattractant Protein-1 (MCP1), CCL2 (gene 6347)
assay.details: BSK_LPS_MCP1: BioMAP Diversity Plus: LPS Assay for Monocyte Chemoattractant Protein-1 (MCP1) Biomarker Activity (AID 2283081)
applied.conditions: primary human HUVEC with PBMC; actives raise or lower the signal
Procedure: BSK_LPS is a cell-based, multiplexed-readout assay that uses umbilical vein endothelium and peripheral blood mononuclear cells, a human vascular primary cell co-culture, with measurements taken at 24 hours after chemical dosing in a 96-well plate.BSK_LPS_MCP1 is an assay component measured in the BSK_LPS assay. It measures MCP-1 antibody related to regulation of gene expression using ELISA technology.Data from the assay component BSK_LPS_MCP1 was analyzed into 1 assay endpoint. […]
The source made the active and inactive calls. How the source made its calls: active means hit-call score of the fitted dose curve at least 0.9, where 1 is the maximum; inactive means score below 0.9.
The reply should be one of these categories: active, inactive

Reference set (3 entries):
O=C1C(Cl)=C(Cl)C(=O)C(Cl)=C1Cl :: active
O=c1[nH]c(Cl)c(Cl)cc1Cl :: inactive
CCCC[N+](CCCC)(CCCC)CCCC :: inactive

Query: Dear colleague, could you share the recorded outcome for CC(C)COP(=O)(OCC(C)C)OCC(C)C when you have a moment?
Result: inactive

Query: Dear colleague, could you share the recorded outcome for COCC(=O)N(c1c(C)cccc1C)N1CCOC1=O when you have a moment?
Result: inactive

Query: Dear colleague, could you share the recorded outcome for Oc1cc(Cl)ccc1Cl when you have a moment?
Result: inactive

Query: Dear colleague, could you share the recorded outcome for O=C(O)CCCc1ccc(N(CCCl)CCCl)cc1 when you have a moment?
Result: active

Query: Dear colleague, could you share the recorded outcome for CC1(C)[C@H](C(=O)O[C@H](C#N)c2cccc(Oc3ccccc3)c2)[C@@H]1C=C(Br)Br when you have a moment?
Result: inactive

Query: Dear colleague, could you share the recorded outcome for O=S(=O)(c1ccccc1)c1ccccc1 when you have a moment?
Result: inactive

---

assay.details: CEETOX_H295R_OHPROG: CeeTox H295R High-throughput Steroidogenesis Assay for OH-Progesterone (OHPROG) (AID 2283435)
applied.conditions: actives raise or lower the signal
Active and inactive are the calls of the source. How the source made its calls: active means hit-call score of the fitted dose curve at least 0.9, where 1 is the maximum; inactive means score below 0.9.
The reply should be one of these categories: true (1) (active), false (0) (inactive)

Reference set (6 entries):
O=CNC(N1CCN(C(NC=O)C(Cl)(Cl)Cl)CC1)C(Cl)(Cl)Cl (centres undefined) :: false (0)
CC(Cc1ccc(C(C)(C)C)cc1)CN1C[C@@H](C)O[C@@H](C)C1 (some centres undefined) :: true (1)
CNC(=O)Oc1cc(C)c(SC)c(C)c1 :: false (0)
Oc1cc(Cl)ccc1Cl :: true (1)
CCOP(=O)(OCC)Oc1ccc([N+](=O)[O-])cc1 :: false (0)
CC(C)(C)C(O)C(Oc1ccc(-c2ccccc2)cc1)n1cncn1 (centres undefined) :: true (1)

Query: Dear colleague, could you share the recorded outcome for c1ccc(Nc2ccc3ccccc3c2)cc1 when you have a moment?
Result: true (1)

Query: Dear colleague, could you share the recorded outcome for Nc1ccc(Cl)c(Cl)c1 when you have a moment?
Result: true (1)

Query: Dear colleague, could you share the recorded outcome for C=CC(=O)OCCO when you have a moment?
Result: false (0)

---

assay.details: CCTE_Mundy_HCI_iCellGluta_NOG_NeuronCount: CCTE's Neurite Outgrowth Assay in iCellGluta cells for Neuron Count, Mundy Lab (AID 2284340);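 further: cells fixed about 48 h after compound addition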
Inconclusive results are not listed. Activity calls are given as the source filed them. How the source made its calls: active means hit-call score of the fitted dose curve at least 0.9, where 1 is the maximum; inconclusive means response in the unintended direction; inactive means score below 0.9.
The reply should be one of these categories: y for active, n for inactive

Reference set (2 entries):
CC1(C)[C@@H](C=C(Cl)Cl)[C@@H]1C(=O)O[C@@H](C#N)c1ccc(F)c(Oc2ccccc2)c1 :: n
Cn1nc(C(F)(F)F)c(CS(=O)(=O)C2=NOC(C)(C)C2)c1OC(F)F :: n

Query: Dear colleague, could you share the recorded outcome for [CH3][Hg][Cl] when you have a moment?
Result: y

Query: Dear colleague, could you share the recorded outcome for COP(=O)(OC)SCN1C(=O)c2ccccc2C1=O when you have a moment?
Result: n

Query: Dear colleague, could you share the recorded outcome for CCOP(=S)(OCC)SCS(=O)C(C)(C)C (stereo not given) when you have a moment?
Result: n
